Source: patent US20260297121A1

Exercise: for every item that follows, state its recorded GI50.
Test system: PC3
Measurement protocol: Cytotoxicity, resazurin fluorescence, PC3
Format: cell-based
Stated conditions: Homo sapiens, PC-3, 72 h, read-out: GI50 PC3, Table 5
One number for each entry, in nM.

Solved cases (4 shown):
INSERT INTO assay_data (compound, numeric_value) VALUES
  ('COC(C(=NOCCNC(=O)c1[nH]c2ccc(Cl)cc2c1-c1cccs1)C(O)C(C)O)C1Cc2cc3cc(OC4CC(OC5CC(O)C(O)C(C)O5)C(O)C(C)O4)c(C)c(O)c3c(O)c2C(=O)C1OC1CC(OC2CC(OC3CC(C)(O)C(O)C(C)O3)C(O)C(C)O2)C(O)C(C)O1 (centres unmarked) [YL-C106]', 236),
  ('COC(C(=NOCCNC(=O)c1cc2cc(Br)ccc2[nH]1)C(O)C(C)O)C1Cc2cc3cc(OC4CC(OC5CC(O)C(O)C(C)O5)C(O)C(C)O4)c(C)c(O)c3c(O)c2C(=O)C1OC1CC(OC2CC(OC3CC(C)(O)C(O)C(C)O3)C(O)C(C)O2)C(O)C(C)O1 (centres unmarked) [YL-B169]', 34),
  ('COC(C(=NOCCNC(=O)c1[nH]c2ccc(Cl)cc2c1-c1ccnn1C)C(O)C(C)O)C1Cc2cc3cc(OC4CC(OC5CC(O)C(O)C(C)O5)C(O)C(C)O4)c(C)c(O)c3c(O)c2C(=O)C1OC1CC(OC2CC(OC3CC(C)(O)C(O)C(C)O3)C(O)C(C)O2)C(O)C(C)O1 (centres unmarked) [YL-C104]', 133),
  ('COC(C(=NOCCNC(=O)c1[nH]c2ccc(Cl)cc2c1-c1ccccc1)C(O)C(C)O)C1Cc2cc3cc(OC4CC(OC5CC(O)C(O)C(C)O5)C(O)C(C)O4)c(C)c(O)c3c(O)c2C(=O)C1OC1CC(OC2CC(OC3CC(C)(O)C(O)C(C)O3)C(O)C(C)O2)C(O)C(C)O1 (centres unmarked) [YL-B176]', 304);

## Task Return GI50 measured with PC3 given this compound: COC(C(=NOCCNC(=O)c1[nH]c2ccc(O)cc2c1-c1ccc(Cl)cc1)C(O)C(C)O)C1Cc2cc3cc(OC4CC(OC5CC(O)C(O)C(C)O5)C(O)C(C)O4)c(C)c(O)c3c(O)c2C(=O)C1OC1CC(OC2CC(OC3CC(C)(O)C(O)C(C)O3)C(O)C(C)O2)C(O)C(C)O1 (centres unmarked) [YL-C120]
## Result 66
